The reported measurements were obtained from ChEMBL document CHEMBL3085685.

tested on: Leishmania amazonensis; experiment: Leishmanicidal activity against extracellular promastigote stage of Leishmania amazonensis MHOM/Br/79/Maria assessed as reduction of parasite load after 48 hrs by resazurin dye-based fluorometric analysis; format: functional, organism-based; settings: Leishmania amazonensis, MHOM/Br/79/Maria, 48 h; read-out: IC50
Measurement Label: pIC50
# log scale: pIC50 equals minus log10 of the concentration in mol/L

**Query** Provide pIC50, tested on Leishmania amazonensis, for O=[N+]([O-])c1ccc(S(=O)(=O)Nc2ccc3cn[nH]c3c2)cc1 .
**Result** 4.22

**Query** Param request: pIC50 | system Leishmania amazonensis | item O=S(=O)(Nc1cccc2cnccc12)c1cccc2ccccc12
**Result** 4.61

**Query** # return pIC50 of O=S(=O)(Nc1ccc2nccnc2c1)c1ccc(F)cc1 (system: Leishmania amazonensis)
**Result** 4.85
